System: lambsquarters (Chenopodium album)
Experiment: Test C greenhouse herbicide test, pre- and postemergence
Assay type: in vivo
Conditions: Postemergence, 125 g ai/ha; scale 0 to 100, 0 is no effect, 100 is complete control
PARAMETER_MEASURED: Plant response rating, Lambsquarters

CC(=O)Oc1c(C)nn(C)c(=O)c1-c1c(C)sc2c(C)cc(C)cc12 :: 90
CCC(=O)Oc1c(C)nn(C)c(=O)c1-c1c(C)sc2ccc(C)cc12 :: 100
CCC(=O)Oc1c(C)nn(C)c(=O)c1-c1c(C)sc2ccc(Cl)cc12 :: 100
CC(=O)Oc1c(C)nn(C)c(=O)c1-c1c(C)sc2ccc(C)cc12 :: 98
CC(=O)Oc1c(C)nn(C)c(=O)c1-c1c(C)oc2ccc(C)cc12 :: 80
